Experiment: yeast display, Sf9 membrane polyspecificity reagent, FACS + sequencing; frameworks hold sequencing errors

{"columns": ["SEQUENCE_STRING", "polyreactivity (PSR sort gate)"],
 "data": [
  ["QVQLVESGGGLVQAGGSLRLSCAASGIIFRNYAMGWYRPAPGKEREFVASITKRGGSTYYADSVKGRFTISRDNAKNTVYLQINSLKPEDTAVYYCNTQWYRGRTEYGYWGQGTQVTVSS", "high polyreactivity"],
  ["QVQLVESGGGLVQAGGSLRLSCAASGRIFRSNAMGWYRQAPGKERELVAAISQRGGSTYYADSVKGRFTISRDNAKNTVYLQINSLKPEDTAVYYCNARGRYYSGDNWGQGTQVTVSS", "high polyreactivity"]
]}

* * *

Assay: yeast display, Sf9 membrane polyspecificity reagent, FACS + sequencing; frameworks hold sequencing errors
READOUT_NAME: polyreactivity (PSR sort gate)

// solved cases for polyreactivity (PSR sort gate) follow
{"columns": ["SEQUENCE_STRING", "polyreactivity (PSR sort gate)"],
 "data": [
  ["QVQLVESGGGLVQAGGSLRLTCAASGGTFQVNAMGWYRQAPGKEMELVAAINRSGGGTTYADSVKGRFTISRDNAKNTVYLQMNSLKPEDTAVYYCAVDFYTYYYVEYGYWGQGTEVTVSS", "high polyreactivity"],
  ["QVQLVESGGGLVQAGGSLRLSCAASGRIFQWYAMGWYRQAPGKERELVATISDGDSTNYADSVKGRFTISRDNAKNTVYFQMNSLKPEDTAVYYCAALDIYYDSYYWYDYWGQGTQVTVSS", "high polyreactivity"],
  ["QVQLVESGGGLVQAGGSLRLSCAASGSMFSTYAMGWYRQAPGKERELVAASSRSGGSTYYADSVKGRFTISRDNAKNTVYLQMNSLKPEDTADYYCAKVARRQRYDYWGQGTQVTVSS", "high polyreactivity"],
  ["QVQLVESGGGLVQEGGSLRVSCAASGRTFRWYTMGWYRQAPGKEREFVAAITWSGSSTNYADSVKGRFTISRDNAKNTVYLQMNSLKPEDTAVYYCAGEKRRRRDDYWGQGTHVTVSS", "high polyreactivity"]
]}

Consider now this further sequence.
The value of polyreactivity (PSR sort gate) measured for the sequence QVHLVESGGGLVQAGGSLRLSCAASGIIFAPNAMGWYRQAPGKEREVVAGISSRGGSTYYADSVKGRFTISRDNAKNTVYLQMNSLKPEDTAVYYCAADLSYNPDEYWGQGTQVTVSS turned out to be low polyreactivity

* * *

Experiment: yeast display, Sf9 membrane polyspecificity reagent, FACS + sequencing; frameworks hold sequencing errors
READOUT_NAME: polyreactivity (PSR sort gate)

{"columns": ["SEQUENCE_STRING", "RESULT"],
 "data": [
  ["QVQLVESGGGLVQAGGSLRLSCAASGGIKRPYAMGWSRQAPRKERELVAAISYSGGSTYYADSVKGRFTISRDTAKISVYLLMNSLKTEDTAVYYCIAYRQCSNVLTTYEYWGKGTQVTVSS", "high polyreactivity"],
  ["QVHLVESGGGLVQAGGSLRLSCAASGFTFYRYAMGWYRQAPGKERELVAAISRRGVSTDYADSVKGRFTISRDNAKNTVYLQMNSLKPEDTAVYYCAASYSRGVGKFGYWGQGSQVTVSS", "high polyreactivity"],
  ["QVQLVESGGGLVQAGGSLRLSCAASGSIFRYNAMGWYRQAPGKERELVAAIDWSGGTYYADSVKGRFTISRDNAKNTVYLQMNSLKPEDTAVYYCNARGSTYSSYWGYDYWGQGTQVTVSS", "low polyreactivity"],
  ["QVQLVESGGGLVQAGGSLRLSCAASGSIFRKYAMGWYRQAPGKDRELVAAISKRGGSTYYADSVKGRFTISRDNAKNTVYLQMNSLKPEDTAVYYSNALRRYVSVRPTKSDYWGQGTQVTVSS", "high polyreactivity"]
]}

Per the record, QVQLVESGGGLVQAGGSLRLSSAASGRIFYNYAMGWYRQAPGKERELVAAISVSGGSTYYADSVKGRFTISRDNAKNTVYLQMNSLKPEDTAVYYCAAGRGYTYNYWGQGSQVTVSS has polyreactivity (PSR sort gate) of high polyreactivity

Entry QVQLVESGGGLVQAGGSLRLSCDASGSTSKTYAMGWYRQAPGKERELVAVISYGGTTYYADSVKGRFTISRDNAKNTVYLQLNSLKPEDTAVYYCAARAWHRRGVPHYYWGQGSQVTVSS , polyreactivity (PSR sort gate) reported as high polyreactivity

Lookup result for QVQLVESGGGLVQAGGSLRLSCAASGRIFTRYAMGWYRQAPGKERELVDGITSRGGSTYYADSVKGRYTISRDNAKNTVYLQMNSLKPEDTAVYYCNKRYTGENDYWGQGTQVTVSS ; measured polyreactivity (PSR sort gate): high polyreactivity

For reference, reported polyreactivity (PSR sort gate) for QVQLVESGGGLVQAGGSLRLSCAASGRTFIGYAMGWYRQAPGKERELVAAITSSGGSTYYSDSVKGRFTISRDNAKNTVYLQMNSLKPEDTAVYYCAAGRHSEDNYWGQGTQVTVSS stands at high polyreactivity

sequence QVQLVESGGGLVQAGGSLRLSCAASGRTLRSNAMGWYRQAPGKERELVAAISSNGGSTYYADSVKGRFTISRDNAKNTVYLQMNSLKPEDTAVYYCAALSYYYSDRMDYWGQGTQVSVSS , polyreactivity (PSR sort gate) observed: low polyreactivity

get_value(item= QVQLVESGGGLVQAGGSLRLSCAASGRTLNNNAMGWYRQAPGKERELVAAISRSGGRTYYADSVKGRFTISRDNAKNTVYLQMNSLKPEDTAVYYCAAVNIRFGYADRFYYVYRGDEWGQGTQVTVSS , readout=polyreactivity (PSR sort gate)) returns high polyreactivity

Field polyreactivity (PSR sort gate) (entry QVQLVESGGGLDQAGGSLRLSCAASGRTFYRYAMGWYRQEPGKERELVATISRSGGSTYYADSVKGRFTISRDNAKNTVYLQMNSLKPEDTAVYYCNAEGYPWGFYTYDYWGQGTQVTVSS ) reads low polyreactivity

Form field polyreactivity (PSR sort gate), entry QVQLVESGGGLVQAGGSLRLSCAASGITFVINGMGWYRQAPGKESELLAAISKSGRTYYADSVKGRFTISRDNAKNTVFIQMNSLTPEDSAVYYCNNVPYPSNDYWGQGTQVTVSS : high polyreactivity

* * *

Test: yeast display, Sf9 membrane polyspecificity reagent, FACS + sequencing; frameworks hold sequencing errors
READOUT_NAME: polyreactivity (PSR sort gate)

Example results:
{"columns": ["SEQUENCE_STRING", "polyreactivity (PSR sort gate)"],
 "data": [
  ["QVQLVESGGGLVQAGGSLRLSCAASGIIFDINAMGWYRQAPGKERELVAAITTSVDSTYYADSVKGRFTISRDTAKNTVYLQMNSLKPEDTAVYYCAVAFVQFTQYDYWGQGTQVTVSS", "low polyreactivity"],
  ["QVQLLESGGGLVQAGGSLRLSCAASGLIFRGNDMGWYRPAPGKERELVAGINSSGSTNYADSVKGRFTISRDNAKNTVYLQMNSLKPEDTAVYDCAARAIVSFDYWGQGTQVTVSS", "low polyreactivity"],
  ["QVQLVESGGGLVQAGGSLRLSCAASGNTFYRYAMGWYRQAPGKERELVAAISWSGSSTYYADSVKGRFTISRDNAKNTVYLQMNSLKPEDTAVYYCAVYYTRIGPRYDYWGQGTQVTVSS", "high polyreactivity"],
  ["QVQLVDSGGGLVQAGGSLRLSCAASGFIFFQNAMGWYRQSPGKERELVAAISRRGGSTYYADSVKGRFTISRDNAKNTVYLQRNSLTPDDTAGYYCAARSRCDLASRYTGDYWGQGTQLTVSS", "low polyreactivity"]
]}

Now for a further sequence.
The sequence identified as QVQLVESGGGLVQAGGSLRLSCAASGSTFRGYAMGWYRQAPGKERELVASISWSGGSTYYADSVKGRFTISRDNAKNTVYLQMNSLKPEDTAVYYCAARKRWRNIRMDYWGQGTQVTVSS registered its polyreactivity (PSR sort gate) at high polyreactivity

* * *

Experiment: yeast display, Sf9 membrane polyspecificity reagent, FACS + sequencing; frameworks hold sequencing errors
READOUT_NAME: polyreactivity (PSR sort gate)

Examples from the recorded data:
{"columns": ["SEQUENCE_STRING", "RESULT"],
 "data": [
  ["QVQLVESGGGLVQAGGSLRLSCAASGRTFWYYAMGWYRQSPGKERELVAVITSGSSTYYADSVKGRFTISRDNAKNTVYLQMNSLKPEDTAVYYCAVGRTYRRYSAASYNYWGQGTQVTVSS", "high polyreactivity"],
  ["QVQLVESGGGLVQAGGTLLLSGAASGSIFGYNAMGWYRQAPGKERELVAAIRSSDSRTHYADSVKGRFRISRDNAKNTVYLQMNSLKPEDTAVYYCAAVKRRPGHYLYDYWGQGTQVTVSS", "low polyreactivity"],
  ["QVQLVESGGGLVQAGGSLRLSCAASGSISFYAMGWYRQAPGKERELVAAITTSGGRTYYADSVKGRFTISRDNAKNTVYLQMNSLKPEDTAVYYCNVASKGRYARYAAEYGSWGQGTQVTVSS", "high polyreactivity"],
  ["QVQLVETGGGLVQAGGSLRLSSAASGFTFGTYAMGWYRQAPGKERELVAAITGSGVRTYYADSVKGRFTISRDIAKYTVFLQMNSLKPEDTAVYYCAADYVVPLAFWTFRFDYWGQGTQVTVSS", "low polyreactivity"]
]}

The sequence identified as QVQLVESGGGLVQAGGSLRLSCAASGFIFRYYAMGWYRQAPGKEREFVAAISSSGGSTYYADSVKGRFTISRDNAKNTVYLQMNSLKPEDTAVYYCAARSRQDNFYRSYNSWGQGTQVTVSS registered its polyreactivity (PSR sort gate) at high polyreactivity

Short answer for QVQLVESGAGLVQAGGSLRLTCAASGFIFRDYAMGGYRQAPGKDRELVAAISSGDSTNYADSVKGRFTISRDNAKNTVYLLMNSLKPEDTAVYYCAADQVQYTGYTEYDWGQGTQVTVSS : polyreactivity (PSR sort gate) was low polyreactivity

Lab note: measured polyreactivity (PSR sort gate) of QDQLVESGGGLVQAGGSLRLSCAASGGTFTVYAMGWYRQAPGKERELVATINWSRGSTYYADSVKGRFTISRDNAKNTVYLQMKSLKPEDNAVYYCNAAWQYKSVEYWGQGTQVTVSS was low polyreactivity

// field: polyreactivity (PSR sort gate); key: QVQLVESGGGLVQAGGSLRLSCADSGSTFDSYAMGWYRQAPGKERELVASITSRGGRTYYADSVKGRFTISRDNAKNTVYLQMNSLKPEDTALYYCNAYRRNYYYYQRHGYWGQGTQVTVSS ; value = high polyreactivity

Notebook: QVQLVESGGGLVQAGGILRLSCAASGSTFYENAMGWYRQAPGKERELVAAITWSGGRTYYADSVKGRFTISRDNAKNTVYLQMNSLKPEDTAVYYCNARARSRKFYYWGQVTQVTVSS , polyreactivity (PSR sort gate) read as high polyreactivity

Consider QVQLVESGGGLVQAGGSLRLSCAASGIIFYGNAMGWYRQAPGKERELVAAISWSGSSTYYADSVKGRFTISRDNAKNTVYLQMNSLKPEDPAVYYCNKATSSVRYLKYYYWGQGTQVTVSS . Its measured polyreactivity (PSR sort gate) is high polyreactivity

Record QVQLVESAAGLVQAGGRLRLSCAASGYTFSNYAMGWSRQAPGKERELVAAISRSGGSTYYADSVKGRFTISRDNAKNTVYLQMNSLNPVDTAVYYCAASRSGTYDWGLGTQVTVSS . Reported polyreactivity (PSR sort gate): high polyreactivity
